# TARGET_ENTITY: Kinesin-like protein KIF11 (Homo sapiens, UniProt P52732)
# Sequence (P52732 whole entry): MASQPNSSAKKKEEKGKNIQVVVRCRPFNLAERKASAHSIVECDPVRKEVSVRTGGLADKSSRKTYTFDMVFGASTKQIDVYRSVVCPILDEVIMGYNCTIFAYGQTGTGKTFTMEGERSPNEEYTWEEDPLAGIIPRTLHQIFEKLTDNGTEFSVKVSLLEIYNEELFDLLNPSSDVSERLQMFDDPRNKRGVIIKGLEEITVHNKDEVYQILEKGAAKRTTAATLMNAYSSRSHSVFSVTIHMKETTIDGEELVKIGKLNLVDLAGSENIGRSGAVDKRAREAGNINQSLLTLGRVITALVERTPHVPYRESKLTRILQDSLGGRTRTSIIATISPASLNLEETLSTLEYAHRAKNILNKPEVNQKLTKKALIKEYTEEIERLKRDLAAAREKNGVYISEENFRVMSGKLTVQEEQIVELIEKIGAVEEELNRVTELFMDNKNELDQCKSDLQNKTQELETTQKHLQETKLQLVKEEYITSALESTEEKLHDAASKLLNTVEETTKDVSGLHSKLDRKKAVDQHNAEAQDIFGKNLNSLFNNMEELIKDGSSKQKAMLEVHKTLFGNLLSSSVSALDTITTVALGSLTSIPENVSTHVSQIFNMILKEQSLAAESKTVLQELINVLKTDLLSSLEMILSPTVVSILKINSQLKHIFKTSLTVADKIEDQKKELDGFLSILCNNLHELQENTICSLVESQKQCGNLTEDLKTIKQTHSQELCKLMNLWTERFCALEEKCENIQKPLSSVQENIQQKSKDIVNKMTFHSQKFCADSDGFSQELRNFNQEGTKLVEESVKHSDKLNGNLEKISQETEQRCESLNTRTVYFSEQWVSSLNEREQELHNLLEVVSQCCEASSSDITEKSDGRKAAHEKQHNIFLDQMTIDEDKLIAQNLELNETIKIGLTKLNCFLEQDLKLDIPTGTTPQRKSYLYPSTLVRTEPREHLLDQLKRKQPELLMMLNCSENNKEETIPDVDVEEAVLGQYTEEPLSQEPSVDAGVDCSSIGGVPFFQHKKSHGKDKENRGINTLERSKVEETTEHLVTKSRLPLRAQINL
# ASSAY: Inhibition of Eg5 by ATPase assay
pIC50: −log10 of the molar value.
pIC50 reference
READOUT: pIC50

CCOC(=O)N1Cc2c(ccc(C)c2C)C(c2ccccc2)C1 (stereo not drawn); < 4.60
CNC(=O)N1Cc2c(ccc(C)c2C)C(c2ccccc2)C1 (stereo not drawn); < 4.60
Cc1ccc2c(c1C)CN(C(N)=O)CC2c1ccccc1 (stereo not drawn); < 4.60

Where these numbers come from: ChEMBL document CHEMBL1146117
